System: A2780/CP70 cells
Assay summary: MTT cytotoxicity assay, A2780/CP70 cells
Condition summary: read-out: IC50 cytotoxicity; A2780/CP70, 48 h contact time, MTT
Protocol: In separate experiments, cells were seeded in 96‐well plates and after 24 h elapsed they were exposed to different concentrations of drugs or vehicle. Cells were then left in the incubator for a further 24 or 48 h. […] The selective index (SI) is the ratio of mean IC50 values for non‐cancer cells to cancer cells. […] While the isobologram can be considered predominantly as a graphical depiction of drug interactions, the combination index (CI) is a quantitative representation. […]
pIC50: −log10 of the molar value.
Quantity measured: pIC50

Prompt line: Look at this compound and give its reported pIC50. N.N.O=C([O-])C1(C(=O)[O-])CCC1.[Pt+2] [carboplatin]
Response line: < 4.00

Measured values drawn from paper PMC10723784 for this set.
